This collection of values is drawn from the supplement of paper PMC4862054.

Catalogue of normalised viability readings, one per entry.
test system: CAL-148; test: normalised viability (% of control), CellTiter-Blue; higher = more viable cells (about 100 = DMSO control); conditions: incubation time: 72 h
Express the result in % but write the number alone.

Illustrative cases are given below, each with its answer.
Oc1ccc2c(c1)CC[C@H](c1ccccc1)[C@@H]2c1ccc(OCCN2CCCC2)cc1 [Lasofoxifene] (300 nM) | 98.2
Cc1[nH]c2ccccc2c1CCNCc1ccc(/C=C/C(=O)NO)cc1 [Panobinostat] (300 nM) | 1.12
Nc1cc(C(F)(F)F)c(-c2cc(N3CCOCC3)nc(N3CCOCC3)n2)cn1 [BKM-120] (3000 nM) | 18.8
COc1cc2/c(=N/c3ccc(Br)cc3F)nc[nH]c2cc1OCC1CCN(C)CC1 [Vandetanib] (3000 nM) | 77
O=P1(N(CCCl)CCCl)NCCCO1 (configuration not stated) [Cyclophosphamide] (12000 nM) | 97.2
NC(=O)c1ccc(I)c([N+](=O)[O-])c1 [Iniparib] (3000 nM) | 97

The recorded normalised viability for entry CNC(=O)c1cc(Oc2ccc(NC(=O)Nc3ccc(Cl)c(C(F)(F)F)c3)c(F)c2)ccn1 [Regorafenib] (3000 nM) equals 95.8

----------
system: MDA-MB-436; assay: normalised viability (% of control), CellTiter-Blue; higher = more viable cells (100 = DMSO, 0 = benzethonium chloride kill control); conditions: incubation time: 72 h
experimental-readout: normalised viability (%)
Express the result in % but write the number alone.

The recorded normalised viability for entry Oc1ccc2c(c1)CC[C@H](c1ccccc1)[C@@H]2c1ccc(OCCN2CCCC2)cc1 [Lasofoxifene] (0.1 nM) equals 102

The recorded normalised viability for entry CN(C)CCOc1ccc(/C(=C(/CCCl)c2ccccc2)c2ccccc2)cc1 [Toremifene] (1 nM) equals 126

The recorded normalised viability for entry CO[C@H]1C[C@@H]2CC[C@@H](C)[C@@](O)(O2)C(=O)C(=O)N2CCCC[C@H]2C(=O)O[C@H]([C@H](C)C[C@@H]2CC[C@@H](OP(C)(C)=O)[C@H](OC)C2)CC(=O)[C@H](C)/C=C(\C)[C@@H](O)[C@@H](OC)C(=O)[C@H](C)C[C@H](C)/C=C/C=C/C=C/1C [Ridaforolimus] (0.1 nM) equals 105

The recorded normalised viability for entry COc1cc(OC2CCN(C)CC2)ccc1Nc1ncc2c(n1)n(C1CCCC1)c(=O)n2C [AZ 3146] (1 nM) equals 103

The recorded normalised viability for entry O=C(Nc1cccnc1)N1CCC(Cc2cccc(Oc3ccc(C(F)(F)F)cn3)c2)CC1 [PF-3845] (1 nM) equals 99.8

The recorded normalised viability for entry O=C(Nc1ccncc1)C(=O)c1cn(Cc2ccc(Cl)cc2)c2ccccc12 [Indibulin] (1 nM) equals 161

The recorded normalised viability for entry COC(=O)c1ccc2c(c1)NC(=O)/C2=C(\Nc1ccc(N(C)C(=O)CN2CCN(C)CC2)cc1)c1ccccc1 [BIBF 1120] (1 nM) equals 114

The recorded normalised viability for entry N#Cc1ccc(COC[C@H]2O[C@@H](n3c(NCc4ccc(Cl)c(Cl)c4)nc4c(N)ncnc43)[C@H](O)[C@@H]2O)cc1 (1 nM) equals 110

----------
Catalogue of normalised viability readings, one per entry.
tested on: HCC1599; assay: normalised viability (% of control), CellTiter-Blue; higher = more viable cells (about 100 = DMSO control); details: 1000 nM; incubation time: 72 h
Express the result in % but write the number alone.

Illustrative cases are given below, each with its answer.
O=C(/C=C/c1cccc(S(=O)(=O)Nc2ccccc2)c1)NO [Belinostat] | 33.2
NC(=O)c1ccc(I)c([N+](=O)[O-])c1 [Iniparib] | 88.3
COc1cc2/c(=N/c3ccc(Br)cc3F)nc[nH]c2cc1OCC1CCN(C)CC1 [Vandetanib] | 107
COCC1(CO)C(=O)C2CCN1CC2 (configuration not stated) [Prima-1 Met] | 120
O=C(Nc1ccncc1)C(=O)c1cn(Cc2ccc(Cl)cc2)c2ccccc12 [Indibulin] | 124
Cc1ccc(NC(=O)c2ccc(CN3CCN(C)CC3)cc2)cc1Nc1nc(-c2cccnc2)cs1 [Masitinib] | 97.6

Now for a further compound.
Entry COc1cc(OC2CCN(C)CC2)ccc1Nc1ncc2c(n1)n(C1CCCC1)c(=O)n2C [AZ 3146] , HCC1599 data, normalised viability value: 121

----------
system: DU-4475; test: normalised viability (% of control), CellTiter-Blue; higher = more viable cells (about 100 = DMSO control); conditions: incubation time: 72 h
experimental-readout: normalised viability (%)
Express the result in % but write the number alone.

The recorded normalised viability for entry CN(C)c1nc(N(C)C)nc(N(C)C)n1 [Altretamine] (10000 nM) equals 94.7

----------
tested on: CAL-51; assay: normalised viability (% of control), CellTiter-Blue; higher = more viable cells (100 = DMSO, 0 = benzethonium chloride kill control); conditions: incubation time: 72 h
experimental-readout: normalised viability (%)
Express the result in % but write the number alone.

Illustrative cases are given below, each with its answer.
c1ccc2c(CCNc3ccc(Nc4ccncc4)cc3)c[nH]c2c1 [Serdemetan] (1 nM) | 110
Cc1cc(Nc2cc(CN3CCOCC3)c3nc(C)c(Cc4ccc(Cl)cc4F)n3n2)n[nH]1 (1 nM) | 98
CC(C)C[C@@H](C(=O)N[C@H](C(=O)OC1CCCC1)c1ccccc1)[C@H](O)C(=O)NO [Tosedostat] (1 nM) | 112
COCC1(CO)C(=O)C2CCN1CC2 (configuration not stated) [Prima-1 Met] (1 nM) | 90.5

The recorded normalised viability for entry COc1cc2/c(=N/c3ccc(Br)cc3F)nc[nH]c2cc1OCC1CCN(C)CC1 [Vandetanib] (1 nM) equals 97

The recorded normalised viability for entry CN(C)CCOc1ccc(/C(=C(/CCCl)c2ccccc2)c2ccccc2)cc1 [Toremifene] (1 nM) equals 104

The recorded normalised viability for entry COC(=O)c1ccc2c(c1)NC(=O)/C2=C(\Nc1ccc(N(C)C(=O)CN2CCN(C)CC2)cc1)c1ccccc1 [BIBF 1120] (1 nM) equals 99.7

The recorded normalised viability for entry S=P(N1CC1)(N1CC1)N1CC1 [Thio-TEPA] (10 nM) equals 94

The recorded normalised viability for entry CN(C)c1nc(N(C)C)nc(N(C)C)n1 [Altretamine] (1 nM) equals 105

The recorded normalised viability for entry NC(=O)c1ccc(I)c([N+](=O)[O-])c1 [Iniparib] (1 nM) equals 95

The recorded normalised viability for entry Oc1ccc2c(c1)CC[C@H](c1ccccc1)[C@@H]2c1ccc(OCCN2CCCC2)cc1 [Lasofoxifene] (0.1 nM) equals 104

The recorded normalised viability for entry N#Cc1ccc(COC[C@H]2O[C@@H](n3c(NCc4ccc(Cl)c(Cl)c4)nc4c(N)ncnc43)[C@H](O)[C@@H]2O)cc1 (1 nM) equals 111

----------
Catalogue of normalised viability readings, one per entry.
test system: Hs578T; experiment: normalised viability (% of control), CellTiter-Blue; higher = more viable cells (about 100 = DMSO control); conditions: 1000 nM; incubation time: 72 h
Express the result in % but write the number alone.

Illustrative cases are given below, each with its answer.
c1ccc2c(CCNc3ccc(Nc4ccncc4)cc3)c[nH]c2c1 [Serdemetan] | 91.5
C=C1C[C@@H]2[C@H](CC[C@]3(C)C(=O)CC[C@@H]23)[C@@]2(C)C=CC(=O)C=C12 [Exemestane] | 110
COC(=O)c1ccc2c(c1)NC(=O)/C2=C(\Nc1ccc(N(C)C(=O)CN2CCN(C)CC2)cc1)c1ccccc1 [BIBF 1120] | 111
Nc1cc(C(F)(F)F)c(-c2cc(N3CCOCC3)nc(N3CCOCC3)n2)cn1 [BKM-120] | 88.7
COCC[n+]1c2c(n(Cc3cnccn3)c1C)C(=O)c1ccccc1C2=O [YM155] | 19.6
N#Cc1ccc(COC[C@H]2O[C@@H](n3c(NCc4ccc(Cl)c(Cl)c4)nc4c(N)ncnc43)[C@H](O)[C@@H]2O)cc1 | 99.3
COc1cc(OC2CCN(C)CC2)ccc1Nc1ncc2c(n1)n(C1CCCC1)c(=O)n2C [AZ 3146] | 109

The recorded normalised viability for entry Oc1ccc2c(c1)CC[C@H](c1ccccc1)[C@@H]2c1ccc(OCCN2CCCC2)cc1 [Lasofoxifene] equals 118

----------
Catalogue of normalised viability readings, one per entry.
tested on: HCC1143; assay: normalised viability (% of control), CellTiter-Blue; higher = more viable cells (about 100 = DMSO control); conditions: 100 nM; incubation time: 72 h

The recorded normalised viability for entry CN(C)CCOc1ccc(/C(=C(/CCCl)c2ccccc2)c2ccccc2)cc1 equals 109%

----------
test system: MDA-MB-453; assay: drug sensitivity score (DSS), CellTiter-Glo (DSS (AUC-based score)); higher = stronger drug effect (viability inhibition or cytotoxicity); extreme values may be limits of the assay; details: incubation time: 72 h
Catalogue of drug sensitivity score readings, one per entry.
Could you keep your reply to the number by itself?

Cc1cc(Nc2cc(CN3CCOCC3)c3nc(C)c(Cc4ccc(Cl)cc4F)n3n2)n[nH]1 | 0

The recorded drug sensitivity score for entry Cc1[nH]c2ccccc2c1CCNCc1ccc(/C=C/C(=O)NO)cc1 equals 23.5

The recorded drug sensitivity score for entry COC(=O)c1ccc2c(c1)NC(=O)/C2=C(\Nc1ccc(N(C)C(=O)CN2CCN(C)CC2)cc1)c1ccccc1 equals 1.67

The recorded drug sensitivity score for entry O=C(/C=C/c1cccc(S(=O)(=O)Nc2ccccc2)c1)NO equals 20.4

The recorded drug sensitivity score for entry COc1cc(O)c2c(c1)/C=C/C[C@H](O)[C@H](O)C(=O)/C=C\C[C@H](C)OC2=O equals 1.38

The recorded drug sensitivity score for entry Oc1ccc2c(c1)CC[C@H](c1ccccc1)[C@@H]2c1ccc(OCCN2CCCC2)cc1 equals 0

The recorded drug sensitivity score for entry O=P1(N(CCCl)CCCl)NCCCO1 (stereo unspecified) [Cyclophosphamide] equals 0

The recorded drug sensitivity score for entry CN(C)CCOc1ccc(/C(=C(/CCCl)c2ccccc2)c2ccccc2)cc1 equals 0

The recorded drug sensitivity score for entry COc1cc2/c(=N/c3ccc(Br)cc3F)nc[nH]c2cc1OCC1CCN(C)CC1 equals 0

The recorded drug sensitivity score for entry COc1cc(OC2CCN(C)CC2)ccc1Nc1ncc2c(n1)n(C1CCCC1)c(=O)n2C equals 0

The recorded drug sensitivity score for entry CCOC(=O)CCNc1cc(N2CCc3ccccc3CC2)nc(-c2ccccn2)n1 equals 17
